Origin of the recorded values: ChEMBL document CHEMBL5120922

assay: Volume of distribution at steady state in Sprague-Dawley rat at 2 mg/kg, iv measured upto 24 hrs by LC-MS/MS analysis; assay type: ADME, organism-based; details: in vivo, read-out: Vdss
endpoint: Vd
Please format your answer as a value with the unit trailing.

Fill blank: measured Vd of the compound C[C@H]1CC[C@@H](c2nc3cccc(Cl)c3c(=O)n2-c2cccnc2)N1c1nc(N)nc(N)c1C#N is ____.
1.66 L/kg

====

molecular target: Phosphatidylinositol 4,5-bisphosphate 3-kinase catalytic subunit delta isoform (Homo sapiens) (UniProt O00329); assay: Inhibition of N-terminal His6-tagged recombinant full length human PI3Kdelta expressed in baculovirus infected Sf21 insect cells at 0.1 uM by HTRF assay relative to control
Sequence (O00329 whole entry, canonical isoform): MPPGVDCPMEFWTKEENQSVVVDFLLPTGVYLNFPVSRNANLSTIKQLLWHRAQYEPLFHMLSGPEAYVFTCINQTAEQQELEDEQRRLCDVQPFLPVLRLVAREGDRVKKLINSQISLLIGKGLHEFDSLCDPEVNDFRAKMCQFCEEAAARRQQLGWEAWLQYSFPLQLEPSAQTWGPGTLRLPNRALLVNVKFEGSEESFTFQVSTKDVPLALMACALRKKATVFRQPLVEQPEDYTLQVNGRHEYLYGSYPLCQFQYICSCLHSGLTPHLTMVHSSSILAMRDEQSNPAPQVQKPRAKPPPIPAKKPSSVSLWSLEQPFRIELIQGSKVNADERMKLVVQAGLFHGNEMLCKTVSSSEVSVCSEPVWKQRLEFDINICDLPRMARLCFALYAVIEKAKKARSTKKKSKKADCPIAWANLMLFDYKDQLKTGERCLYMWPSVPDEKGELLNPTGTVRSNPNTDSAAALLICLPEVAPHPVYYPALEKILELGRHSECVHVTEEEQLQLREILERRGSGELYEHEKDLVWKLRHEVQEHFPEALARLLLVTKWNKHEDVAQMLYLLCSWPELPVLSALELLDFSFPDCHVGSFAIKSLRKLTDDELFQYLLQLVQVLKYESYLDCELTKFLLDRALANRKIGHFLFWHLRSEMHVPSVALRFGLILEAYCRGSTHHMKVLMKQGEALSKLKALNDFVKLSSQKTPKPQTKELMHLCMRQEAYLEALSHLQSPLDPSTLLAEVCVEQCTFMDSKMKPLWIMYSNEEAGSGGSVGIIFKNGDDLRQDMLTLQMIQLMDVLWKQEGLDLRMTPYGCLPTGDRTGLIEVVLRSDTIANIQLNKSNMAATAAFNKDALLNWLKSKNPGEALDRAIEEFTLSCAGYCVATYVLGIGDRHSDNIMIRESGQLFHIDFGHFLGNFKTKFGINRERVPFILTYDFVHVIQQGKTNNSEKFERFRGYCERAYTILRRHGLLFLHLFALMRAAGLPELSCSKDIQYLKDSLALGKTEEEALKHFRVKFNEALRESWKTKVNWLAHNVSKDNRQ
endpoint: inhibition (%)
Value expressed in %; do not type the unit.

Fill blank: measured inhibition of the compound C[C@H]1CC[C@@H](c2nc3ccc(F)cc3c(=O)n2-c2cccnc2)N1c1nc(N)nc(N)c1C#N is ____.
43

Repeat for the following compound: C[C@H]1CC[C@@H](c2nc3ccc(Cl)cc3c(=O)n2-c2cccnc2)N1c1nc(N)nc(N)c1C#N
89

Repeat for the following compound: CCn1cc(-c2cccc3nc([C@@H]4CC[C@H](C)N4c4nc(N)nc(N)c4C#N)n(-c4ccccc4)c(=O)c23)cn1
-4

====

experiment: Cmax in Sprague-Dawley rat at 2 mg/kg, iv measured upto 24 hrs by LC-MS/MS analysis; type: ADME, organism-based; design: time < 24 hrs, dose 2 mg/kg, route iv; conditions: in vivo
endpoint: Cmax (ng/mL)
Value expressed in ng/mL; do not type the unit.

Fill blank: measured Cmax of the molecule C[C@H]1CC[C@@H](c2nc3cccc(Cl)c3c(=O)n2-c2cccnc2)N1c1nc(N)nc(N)c1C#N is ____.
1520

====

target: Phosphatidylinositol 4,5-bisphosphate 3-kinase catalytic subunit delta isoform (Homo sapiens); test: Inhibition of N-terminal His6-tagged recombinant full length human PI3Kdelta expressed in baculovirus infected Sf21 insect cells at 0.1 uM by HTRF assay relative to control
endpoint: inhibition (%)
Value expressed in %; do not type the unit.

- smiles: "C[C@H]1CC[C@@H](c2nc3cccc(Cl)c3c(=O)n2-c2ccccc2)N1c1nc(N)nc(N)c1C#N"
  endpoint: "inhibition"
  unitTag: "%"
  resultValue: -7
- smiles: "C[C@H]1CC[C@@H](c2nc3cccc(Cl)c3c(=O)n2-c2cccc(F)c2)N1c1nc(N)nc2[nH]cnc12"
  endpoint: "inhibition"
  unitTag: "%"
  resultValue: 5
- smiles: "CCCn1cc(-c2cccc3nc([C@@H]4CC[C@H](C)N4c4nc(N)nc(N)c4C#N)n(-c4ccccc4)c(=O)c23)cn1"
  endpoint: "inhibition"
  unitTag: "%"
  resultValue: -2
- smiles: "C[C@H]1CC[C@@H](c2nc3cccc(Cl)c3c(=O)n2-c2ccccc2)N1c1nc(N)nc2[nH]cnc12"
  endpoint: "inhibition"
  unitTag: "%"
  resultValue: 18
- smiles: "N#Cc1c(N)nc(N)nc1N1[C@H](c2nc3cccc(F)c3c(=O)n2-c2cc(F)cc(F)c2)C[C@@H]2CCCC[C@@H]21"
  endpoint: "inhibition"
  unitTag: "%"
  resultValue: 82
- smiles: "C[C@H]1CC[C@@H](c2nc3cccc(-c4cnn(C5CC5)c4)c3c(=O)n2-c2cccc(F)c2)N1c1nc(N)nc(N)c1C#N"
  endpoint: "inhibition"
  unitTag: "%"
  resultValue: 16

Fill blank: measured inhibition of the molecule C[C@H]1CC[C@@H](c2nc3cccc(Cl)c3c(=O)n2-c2ccccc2)N1c1ccnc(N)n1 is ____.
88

Repeat for the following molecule: COc1ccc(C#Cc2cccc3nc([C@@H]4CC[C@H](C)N4c4nc(N)nc(N)c4C#N)n(-c4ccccc4)c(=O)c23)cc1
43

====

test: AUC(0 to t) in Sprague-Dawley rat at 5 mg/kg, po measured upto 24 hrs by LC-MS/MS analysis; assay type: ADME, organism-based; parameters: dose 5 mg/kg, time < 24 hrs, route po; settings: in vivo
endpoint: AUC(0-t) at 24 h (ng·h/mL)
Value expressed in ng·h/mL; do not type the unit.

Fill blank: measured AUC(0-t) at 24 h of the compound C[C@H]1CC[C@@H](c2nc3cccc(Cl)c3c(=O)n2-c2cccnc2)N1c1nc(N)nc(N)c1C#N is ____.
8610

====

molecular target: Phosphatidylinositol 4,5-bisphosphate 3-kinase catalytic subunit beta isoform (Homo sapiens); test: Inhibition of N-terminal His6-tagged recombinant full length human PI3Kbeta expressed in baculovirus infected Sf21 insect cells incubated for 30 mins by HTRF assay
Sequence (P42338 whole entry, canonical isoform): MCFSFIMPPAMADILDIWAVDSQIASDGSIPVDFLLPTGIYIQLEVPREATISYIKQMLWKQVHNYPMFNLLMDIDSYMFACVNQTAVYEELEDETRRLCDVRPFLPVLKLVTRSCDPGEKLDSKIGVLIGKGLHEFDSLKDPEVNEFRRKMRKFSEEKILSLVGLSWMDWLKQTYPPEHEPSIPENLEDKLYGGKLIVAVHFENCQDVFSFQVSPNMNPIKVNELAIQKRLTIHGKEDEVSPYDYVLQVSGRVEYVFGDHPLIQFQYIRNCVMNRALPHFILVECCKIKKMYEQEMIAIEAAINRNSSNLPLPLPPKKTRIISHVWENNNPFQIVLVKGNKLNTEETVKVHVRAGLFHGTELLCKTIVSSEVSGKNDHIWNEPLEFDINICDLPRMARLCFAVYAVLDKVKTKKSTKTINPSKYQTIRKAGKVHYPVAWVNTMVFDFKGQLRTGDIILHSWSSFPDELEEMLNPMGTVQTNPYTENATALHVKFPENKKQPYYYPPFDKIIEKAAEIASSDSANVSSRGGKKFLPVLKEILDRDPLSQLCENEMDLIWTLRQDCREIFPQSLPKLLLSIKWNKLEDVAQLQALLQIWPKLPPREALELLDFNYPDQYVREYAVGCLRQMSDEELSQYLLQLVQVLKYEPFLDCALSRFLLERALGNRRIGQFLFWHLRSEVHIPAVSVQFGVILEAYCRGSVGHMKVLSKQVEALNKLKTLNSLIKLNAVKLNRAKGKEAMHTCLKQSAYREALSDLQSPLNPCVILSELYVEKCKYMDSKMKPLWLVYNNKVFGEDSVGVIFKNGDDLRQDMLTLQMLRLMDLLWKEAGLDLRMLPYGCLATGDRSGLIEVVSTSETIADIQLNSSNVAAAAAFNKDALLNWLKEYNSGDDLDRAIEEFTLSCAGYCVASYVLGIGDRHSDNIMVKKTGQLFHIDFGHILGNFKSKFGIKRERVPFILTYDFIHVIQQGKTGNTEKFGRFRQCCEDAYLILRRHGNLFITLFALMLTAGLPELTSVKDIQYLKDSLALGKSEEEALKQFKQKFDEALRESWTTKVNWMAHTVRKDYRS
pIC50: −log10 of the molar value.
Returns fulfilled if the recorded pIC50 is greater than or equal to 3, and not fulfilled otherwise.

Given the entry C[C@H]1CC[C@@H](c2nc3cccc(Cl)c3c(=O)n2-c2cccnc2)N1c1nc(N)nc(N)c1C#N , answer whether its pIC50 meets or surpasses 3.
fulfilled

Repeat for the following molecule: N#Cc1c(N)nc(N)nc1N1[C@H](c2nc3cccc(F)c3c(=O)n2-c2cccnc2)C[C@@H]2CCCC[C@@H]21
not fulfilled

Repeat for the following molecule: C[C@H]1CC[C@@H](c2nc3c(F)cc(F)cc3c(=O)n2-c2cccnc2)N1c1nc(N)nc(N)c1C#N
fulfilled

Repeat for the following molecule: C[C@H]1CC[C@@H](c2nc3cccc(Cl)c3c(=O)n2-c2cccc(F)c2)N1c1nc(N)nc(N)c1C#N
fulfilled

Repeat for the following molecule: COc1cncc(-c2cccc3nc([C@@H]4CC[C@H](C)N4c4nc(N)nc(N)c4C#N)n(-c4cccc(F)c4)c(=O)c23)c1
fulfilled

====

experiment: Clearance in Sprague-Dawley rat at 5 mg/kg, po measured upto 24 hrs by LC-MS/MS analysis; type: ADME, organism-based; details: in vivo
endpoint: CL/F (mL/min/kg)
Value expressed in mL/min/kg; do not type the unit.

Fill blank: measured CL/F of the compound C[C@H]1CC[C@@H](c2nc3cccc(Cl)c3c(=O)n2-c2cccnc2)N1c1nc(N)nc(N)c1C#N is ____.
13.2

====

assay: Cmax in Sprague-Dawley rat at 10 mg/kg, po measured upto 24 hrs by LC-MS/MS analysis; format: ADME, organism-based; parameters: dose 10 mg/kg, time < 24 hrs, route po; settings: in vivo
endpoint: Cmax (ng/mL)
Value expressed in ng/mL; do not type the unit.

Fill blank: measured Cmax of the compound C[C@H]1CC[C@@H](c2nc3cccc(Cl)c3c(=O)n2-c2cccnc2)N1c1nc(N)nc(N)c1C#N is ____.
785

====

assay: Metabolic stability in human liver microsomes assessed as half life at 1 uM measured upto 60 mins in presence of NADPH; type: ADME, Microsome
Returns 1.0 if the recorded half-life at 1 µM is greater than or equal to 1 h, and 0.0 otherwise.

- smiles: "CC(C)n1cc(-c2cccc3nc([C@@H]4CC[C@H](C)N4c4nc(N)nc(N)c4C#N)n(-c4ccccc4)c(=O)c23)cn1"
  cat: 0.0
- smiles: "C[C@H]1CC[C@@H](c2nc3cccc(Cl)c3c(=O)n2-c2ccccc2)N1c1nc(N)nc(N)c1C#N"
  cat: 1.0
- smiles: "C[C@H]1CC[C@@H](c2nc3cccc(-c4cnn(C5CC5)c4)c3c(=O)n2-c2ccccc2)N1c1nc(N)nc(N)c1C#N"
  cat: 1.0
- smiles: "C[C@H]1CC[C@@H](c2nc3cccc(-c4cccnc4)c3c(=O)n2-c2ccccc2)N1c1nc(N)nc(N)c1C#N"
  cat: 0.0
- smiles: "CCOc1cncc(-c2cccc3nc([C@@H]4CC[C@H](C)N4c4nc(N)nc(N)c4C#N)n(-c4ccccc4)c(=O)c23)c1"
  cat: 0.0
- smiles: "C[C@H]1CC[C@@H](c2nc3cccc(Cl)c3c(=O)n2-c2ccccc2)N1c1nc(N)nc2[nH]cnc12"
  cat: 1.0
- smiles: "CCCn1cc(-c2cccc3nc([C@@H]4CC[C@H](C)N4c4nc(N)nc(N)c4C#N)n(-c4ccccc4)c(=O)c23)cn1"
  cat: 1.0
- smiles: "C[C@H]1CC[C@@H](c2nc3cccc(-c4cnn(C)c4)c3c(=O)n2-c2ccccc2)N1c1nc(N)nc(N)c1C#N"
  cat: 1.0

Given the entry CCn1cc(-c2cccc3nc([C@@H]4CC[C@H](C)N4c4nc(N)nc(N)c4C#N)n(-c4ccccc4)c(=O)c23)cn1 , answer whether its half-life at 1 µM meets or surpasses 1 h.
1.0

Repeat for the following compound: C[C@H]1CC[C@@H](c2nc3cccc(C#Cc4cccnc4)c3c(=O)n2-c2ccccc2)N1c1nc(N)nc(N)c1C#N
1.0

Repeat for the following compound: COc1cncc(-c2cccc3nc([C@@H]4CC[C@H](C)N4c4nc(N)nc(N)c4C#N)n(-c4ccccc4)c(=O)c23)c1
1.0

====

tested on: DOHH-2; test: Antiproliferative activity against human DOHH-2 cells assessed as cell growth inhibition measured after 72 hrs by MTT assay; assay type: functional, cell-based; settings: DOHH-2, 72 h
Please use the following IC50 ranges when assigning a class: b0 = under 600 nM, b1 = from 600 nM up to 800 nM, b2 = 800 nM and over

Worked examples follow.
- smiles: "C[C@H]1CC[C@@H](c2nc3cccc(Cl)c3c(=O)n2-c2cccnc2)N1c1nc(N)nc(N)c1C#N"
  cat: "b0"
- smiles: "C[C@H]1CC[C@@H](c2nc3cccc(Cl)c3c(=O)n2-c2cccnc2)N1c1nc(N)nc2[nH]cnc12"
  cat: "b1"
- smiles: "C[C@H]1CC[C@@H](c2nc3c(F)cccc3c(=O)n2-c2cccnc2)N1c1nc(N)nc(N)c1C#N"
  cat: "b0"

Lab note: which band did Cc1cccc(C#Cc2cccc3nc([C@@H]4CC[C@H](C)N4c4nc(N)nc(N)c4C#N)n(-c4ccccc4)c(=O)c23)c1 land in?
b2

Repeat for the following compound: C[C@H]1CC[C@@H](c2nc3cc(F)ccc3c(=O)n2-c2cccnc2)N1c1nc(N)nc(N)c1C#N
b0

Repeat for the following compound: C[C@H]1CC[C@@H](c2nc3cccc(-c4cnn(C5CC5)c4)c3c(=O)n2-c2ccccc2)N1c1nc(N)nc(N)c1C#N
b0
